Entries annotated with measured pIC50
- test system: PI3K delta (Homo sapiens (Human))
- Sequence (O00329 other isoform, or with tags, fused parts or gaps linker GGGGGG): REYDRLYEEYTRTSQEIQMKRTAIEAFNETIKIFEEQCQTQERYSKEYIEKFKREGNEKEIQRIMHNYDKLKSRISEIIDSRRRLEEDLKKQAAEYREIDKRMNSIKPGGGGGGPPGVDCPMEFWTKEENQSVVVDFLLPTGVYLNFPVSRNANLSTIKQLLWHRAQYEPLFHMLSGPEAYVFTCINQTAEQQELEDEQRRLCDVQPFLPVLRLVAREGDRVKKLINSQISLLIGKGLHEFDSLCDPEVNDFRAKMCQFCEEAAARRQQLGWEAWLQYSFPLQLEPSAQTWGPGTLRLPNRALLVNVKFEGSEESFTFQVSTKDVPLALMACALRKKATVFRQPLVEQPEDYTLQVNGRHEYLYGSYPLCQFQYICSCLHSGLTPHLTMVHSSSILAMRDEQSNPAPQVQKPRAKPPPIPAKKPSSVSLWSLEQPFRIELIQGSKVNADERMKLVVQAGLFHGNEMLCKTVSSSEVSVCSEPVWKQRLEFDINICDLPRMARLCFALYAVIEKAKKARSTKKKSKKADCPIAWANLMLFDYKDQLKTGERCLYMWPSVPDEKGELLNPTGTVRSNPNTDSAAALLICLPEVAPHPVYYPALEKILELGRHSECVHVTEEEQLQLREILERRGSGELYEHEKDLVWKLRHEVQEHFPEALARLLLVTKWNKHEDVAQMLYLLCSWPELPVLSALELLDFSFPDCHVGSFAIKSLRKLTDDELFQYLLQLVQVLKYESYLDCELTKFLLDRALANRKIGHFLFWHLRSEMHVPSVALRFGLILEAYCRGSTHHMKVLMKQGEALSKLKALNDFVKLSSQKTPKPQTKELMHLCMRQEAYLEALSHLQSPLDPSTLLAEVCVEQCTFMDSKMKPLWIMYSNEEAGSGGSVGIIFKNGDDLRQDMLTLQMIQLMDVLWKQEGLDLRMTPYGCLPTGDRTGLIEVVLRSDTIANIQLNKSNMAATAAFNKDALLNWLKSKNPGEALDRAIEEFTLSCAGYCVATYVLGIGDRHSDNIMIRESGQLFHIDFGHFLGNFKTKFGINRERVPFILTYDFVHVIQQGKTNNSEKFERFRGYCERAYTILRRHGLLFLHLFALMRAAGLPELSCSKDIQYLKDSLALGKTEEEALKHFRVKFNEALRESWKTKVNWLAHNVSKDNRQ
- experiment: Enzymatic PI3K delta isoform inhibition (lipid kinase, Kinase-Glo luminescence)
- Type: biochemical
- measurement parameters: enzymatic assay
pIC50: −log10 of the molar value.
endpoint: pIC50

> print(dat)
                                   compound  endpoint  observed.result
1  COc1ncc(N2CCc3ncnc(O[C@H]4CCN(C(=O)c5c[nH]cn5)C4)c3C2)cc1C(F)(F)F     pIC50             7.74
2  COc1ncc(N2CCc3ncnc(O[C@H]4CCN(C(=O)C5CCOC(C)(C)C5)C4)c3C2)cc1C (some centres unmarked)     pIC50             7.80
3  COc1ncc(N2CCc3ncnc(O[C@H]4CCN(C(=O)C5CNC(=O)C5)C4)c3C2)cc1C(F)(F)F (some centres unmarked)     pIC50             7.80
4  COc1ncc(N2CCc3ncnc(N[C@H]4CCN(C(=O)[C@H]5CC[C@@H](O)CC5)C4)c3C2)cc1C(F)(F)F (single isomer, unassigned)     pIC50             8.40
5  COc1ncc(N2CCc3ncnc(O[C@H]4CCN(C(=O)c5cncs5)C4)c3C2)cc1C(F)(F)F     pIC50             7.85
